Give C-term IgG for every item shown.
ASSAY SYSTEM: T1, B3GNT2 (Homo sapiens, UniProt Q9NY97)
T1 construct: The respective ORFs of candidate genes [CD274 (NM_014143), MCL1 (NM_021960), JUNB (NM_002229), and B3GNT2 (NM_006577)] were synthesized; expressed in transfected cells; host or cells: A375 melanoma cells (lentiviral ORF overexpression)
T1 sequence (Q9NY97 1-397): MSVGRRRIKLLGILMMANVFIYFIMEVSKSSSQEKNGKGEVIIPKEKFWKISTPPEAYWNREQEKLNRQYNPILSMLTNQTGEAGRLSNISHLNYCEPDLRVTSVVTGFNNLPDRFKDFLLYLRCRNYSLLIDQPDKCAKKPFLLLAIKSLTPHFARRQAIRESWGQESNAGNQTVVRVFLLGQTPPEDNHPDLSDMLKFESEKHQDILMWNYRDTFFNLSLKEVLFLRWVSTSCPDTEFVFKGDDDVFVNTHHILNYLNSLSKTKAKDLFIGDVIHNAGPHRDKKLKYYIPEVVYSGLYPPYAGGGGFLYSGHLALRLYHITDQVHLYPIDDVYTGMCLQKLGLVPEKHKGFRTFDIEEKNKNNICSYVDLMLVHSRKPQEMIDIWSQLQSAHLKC
PROTOCOL DETAILS: Co-IP of FLAG-tagged B3GNT2 followed by mass spectrometry
Format: cell-based
Set-up: unit not given here
COND: Co-IP followed by mass spectrometry of B3GNT2; C-term tag, IgG pull-down
Description: Cells were plated in 10-cm cell culture dishes and grown to 60-80% confluency. For each condition, two biological replicates were harvested for co-IP. Cells were washed with PBS and 4 mL of lysis buffer (20 mM HEPES, 1% Triton X-100, 150 mM NaCl, 1 mM EDTA, and 10% glycerol) containing protease inhibitor cocktail was added. […] The effluent from the column was analyzed using a Thermo Orbitrap Elite mass spectrometer (nanospray configuration) operated in a data dependent manner for 54 minutes. […]

Observe how each entry below is paired with its result.
NCCRP1 (protein) MEEVREGHALGGGMEADGPASLQELPPSPRSPSPPPSPPPLPSPPSLPSPAAPEAPELPEPAQPSEAHARQLLLEEWGPLSGGLELPQRLTWKLLLLRRPLYRNLLRSPNPEGINIYEPAPPTGPTQRPLETLGNFRGWYIRTEKLQQNQSWTVKQQCVDLLAEGLWEELLDDEQPAITVMDWFEDSRLDACVYELHVWLLAADRRTVIAQHHVAPRTSGRGPPGRWVQVSHVFRHYGPGVRFIHFLHKAKNRMEPGGLRRTRVTDSSVSVQLRE    0
S100A7 (protein) SNTQAERSIIGMIDMFHKYTRRDDKIEKPSLLTMMKENFPNFLSACDKKGTNYLADVFEKKDKNEDKKIDFSEFLSLLGDIATDYHKQSHGAAPCSGGSQ    3

Now consider a different molecule.
Input: // returns reported C-term IgG for input NAP1L1 (protein) ADIDNKEQSELDQDLDDVEEVEEEETGEETKLKARQLTVQMMQNPQILAALQERLDGLVETPTGYIESLPRVVKRRVNALKNLQVKCAQIEAKFYEEVHDLERKYAVLYQPLFDKRFEIINAIYEPTEEECEWKPDEEDEISEELKEKAKIEDEKKDEEKEDPKGIPEFWLTVFKNVDLLSDMVQEHDEPILKHLKDIKVKFSDAGQPMSFVLEFHFEPNEYFTNEVLTKTYRMRSEPDDSDPFSFDGPEIMGCTGCQIDWKKGKNVTLKTIKKKQKHKGRGTVRTVTKTVSNDSFFNFFAPPEVPESGDLDDDAEAILAADFEIGHFLRERIIPRSVLYFTGEAIEDDDDDYDEEGEEADEEGEEEGDEENDPDYDPKKDQNPAEC
Output: 0

Just for reference, patent US20240261333A1 is where these values come from.
